target: pan-HDAC; test: In vitro enzyme inhibition assay - HDAC (HDAC-Glo I/II), pan-HDAC; assay type: biochemical
Counter-ions that a name gives are not always drawn.
Doc: threshold 3 nM (exclusive). Items with IC50 beneath it return YES; others return NO.

compound: Cc1c(O)cc(-c2cnc(N3CCC(NCc4ccc(/C=C/C(=O)NO)cc4)CC3)c(C#N)c2-c2ccc(C#N)c(F)c2)cc1F [Example 161, formate]
assigned.class: NO
--
compound: CC(C)(O)COc1ccc(-c2cnc(N3CCC(NCc4ccc(/C=C/C(=O)NO)nc4)CC3)c(CC#N)c2-c2ccc(C#N)c(F)c2)cc1O [Example 221, formate]
assigned.class: YES
--
compound: COc1ccc(-c2c(OCCCCCCC(=O)NO)cc(N3CCC(N)CC3)nc2-c2ccc(C#N)c(C)c2)cc1O [Example 16, hydrochloride]
assigned.class: NO
--
compound: COc1ccc(-c2cnc(N3CCC(NC(C)(C)c4ccc(/C=C/C(=O)NO)cc4)CC3)c(C#N)c2-c2ccc(C#N)c(F)c2)cc1O [Example 179, formate]
assigned.class: NO
--
compound: COc1ccc(-c2cnc(N3CCC(NCc4ccc(/C=C/C(=O)NO)c5[nH]ncc45)CC3)c(C#N)c2-c2ccc(C#N)c(F)c2)cc1O [Example 180, formate]
assigned.class: NO
--
compound: COc1ccc(-c2cnc(N3CCC(NCc4ccc(/C=C/C(=O)NO)cc4)CC3)c(C#N)c2-c2ccc(C(N)=O)nc2)cc1O [Example 259, formate]
assigned.class: YES
--
compound: COc1ccc(-c2c(OCCCCCCC(=O)NO)cc(N3C4CCC3CC(N)C4)nc2-c2ccc(C#N)c(F)c2)cc1O (centres unmarked) [Example 9, hydrochloride]
assigned.class: NO
--
compound: COc1ccc(-c2cnc(N3CCC(NCc4ccc(/C(C)=C/C(=O)NO)cc4)CC3)c(C#N)c2-c2ccc(C#N)c(F)c2)cc1O [Example 170, formate]
assigned.class: YES
--
compound: COc1ccc(-c2c(OCCCCCCC(=O)NO)cc(N3CCC(N)CC3)nc2-c2ccc(C#N)c(F)c2)cc1O [Example 1, hydrochloride]
assigned.class: NO
--
compound: COc1cc(F)c(-c2cnc(N3CCC(NCc4ccc(/C=C/C(=O)NO)cn4)CC3)c(C#N)c2-c2ccc(C#N)nc2)cc1O [Example 240, formate]
assigned.class: NO
--
compound: COC(=O)c1ccc(-c2c(-c3ccc(OC)c(O)c3)cnc(N3CCC(NCc4ccc(/C=C/C(=O)NO)cc4)CC3)c2C#N)cn1 [Example 253, formate]
assigned.class: YES
--
compound: N#Cc1ccc(-c2c(-c3ccc(C(F)(F)F)c(O)c3)cnc(N3CCC(NCc4cnc(CCC(=O)NO)nc4)CC3)c2C#N)cc1F
assigned.class: NO
--
compound: Cc1noc2cc(-c3c(-c4ccc(C#N)c(F)c4)nc(N4CCC(NCc5ccc(/C=C/C(=O)NO)cc5)CC4)n4ccnc34)c(F)cc12 [Example 36, formate]
assigned.class: NO
--
compound: COc1ccc(-c2cnc(N3CCC(NCc4ccc(/C=C/C(=O)NO)cc4)CC3)cc2-c2ccc(C#N)nc2)cc1O
assigned.class: YES

Source: patent US20250304549A1
